tested on: A549; experiment: Cytotoxicity against human A549 cells assessed as reduction in cell viability incubated for 72 hrs by CCK-8 assay; type: functional, cell-based; settings: A549, 72 h
TEST READOUT: pIC50
Value format note: pIC50 is -log10 of concentration (mol/L); just state the number.

Name the recorded pIC50 for CC(=O)O[C@H]1C[C@H]2OC[C@@]2(OC(C)=O)[C@H]2[C@H](OC(=O)c3ccccc3)C3C[C@H](OC(=O)[C@H](O)[C@@H](NC(=O)c4ccccc4F)c4ccccc4)C(C)=C([C@H]4OC(=O)O[C@@H]4[C@]12C)C3(C)C (some centres undefined) . 6.94

Name the recorded pIC50 for CC(=O)O[C@H]1C[C@H]2OC[C@@]2(OC(C)=O)[C@H]2[C@H](OC(=O)c3ccccc3)C3C[C@H](OC(=O)[C@H](O)[C@@H](NC(=O)c4ccc(C)cc4)c4ccccc4)C(C)=C([C@H]4OC(=O)O[C@@H]4[C@]12C)C3(C)C (some centres undefined) . 7.21

Name the recorded pIC50 for COc1cccc(C(=O)N[C@@H](c2ccccc2)[C@@H](O)C(=O)O[C@H]2CC3[C@@H](OC(=O)c4ccccc4)[C@@H]4[C@]5(OC(C)=O)CO[C@@H]5C[C@H](OC(C)=O)[C@@]4(C)[C@H]4OC(=O)O[C@@H]4C(=C2C)C3(C)C)c1 (some centres undefined) . 7.16

Name the recorded pIC50 for CC(=O)O[C@H]1C[C@H]2OC[C@@]2(OC(C)=O)[C@H]2[C@H](OC(=O)c3ccccc3)C3C[C@H](OC(=O)[C@H](O)[C@@H](NC(=O)c4cccc(Br)c4)c4ccccc4)C(C)=C([C@H]4OC(=O)O[C@@H]4[C@]12C)C3(C)C (some centres undefined) . 6.48

Name the recorded pIC50 for CC(=O)O[C@H]1C[C@H]2OC[C@@]2(OC(C)=O)[C@H]2[C@H](OC(=O)c3ccccc3)C3C[C@H](OC(=O)[C@H](O)[C@@H](NC(=O)c4ccccc4)c4ccccc4)C(C)=C([C@H]4OC(=O)O[C@@H]4[C@]12C)C3(C)C (some centres undefined) . 7.66

Name the recorded pIC50 for CC(=O)O[C@H]1C[C@H]2OC[C@@]2(OC(C)=O)[C@H]2[C@H](OC(=O)c3ccccc3)C3C[C@H](OC(=O)[C@H](O)[C@@H](NC(=O)c4cccc(F)c4)c4ccccc4)C(C)=C([C@H]4OC(=O)O[C@@H]4[C@]12C)C3(C)C (some centres undefined) . 7.17

Name the recorded pIC50 for CC(=O)O[C@H]1C[C@H]2OC[C@@]2(OC(C)=O)[C@H]2[C@H](OC(=O)c3ccccc3)C3C[C@H](OC(=O)[C@H](O)[C@@H](NC(=O)c4ccc(F)cc4)c4ccccc4)C(C)=C([C@H]4OC(=O)O[C@@H]4[C@]12C)C3(C)C (some centres undefined) . 6.88

Name the recorded pIC50 for CC(=O)O[C@H]1C(=O)[C@@]2(C)[C@H]([C@H](OC(=O)c3ccccc3)[C@]3(O)C[C@H](OC(=O)[C@H](O)[C@@H](NC(=O)c4ccccc4)c4ccccc4)C(C)=C1C3(C)C)[C@]1(OC(C)=O)CO[C@@H]1C[C@@H]2O [PACLITAXEL] . 7.89

Name the recorded pIC50 for CC(=O)O[C@H]1C[C@H]2OC[C@@]2(OC(C)=O)[C@H]2[C@H](OC(=O)c3ccccc3)C3C[C@H](OC(=O)[C@H](O)[C@@H](NC(=O)c4ccc(F)c(F)c4)c4ccccc4)C(C)=C([C@H]4OC(=O)O[C@@H]4[C@]12C)C3(C)C (some centres undefined) . 6.39
